Recorded MFI by entry
# target_desc: T1, human TF on the cell surface of tumor cells (human, UniProt P13726 33-295)
# T1 construct: whole, on cells; Endogenous TF on TF-positive human tumor cell lines; also called cell surface TF
# experimental_protocol: flow cytometry on MDA-MB-231 cells, antibody at 10 µg/mL
# Parameters: reference not given here
Give the figure only, with no unit attached.

Illustrative cases are given below, each with its answer.
{"binder": "TF-mAb-H48 (antibody, V domains shown, Humanized) VH: QVQLVQSGSELKKPGASVKVSCKASGYSFISYWMNWVRQAPGQGLEWIGMIYPADSETRLNQKFKDRAVLSVDKSVSTAYLQICSLKAEDTAVYYCAREDYGSSDYWGQGTTVTVSS VL: EIVLTQSPDFQSVTPKEKVTITCSASSSVSYMNWYQQKPDQSPKIWIYGISNLASGVPSRFSGSGSGTDFTLTINSLEAEDAATYYCQQKSSFPWTFGGGTKVEIK", "endpoint_label": "MFI", "numeric_result": 2900}
{"binder": "TF-mAb-H33 (antibody, V domains shown, Humanized) VH: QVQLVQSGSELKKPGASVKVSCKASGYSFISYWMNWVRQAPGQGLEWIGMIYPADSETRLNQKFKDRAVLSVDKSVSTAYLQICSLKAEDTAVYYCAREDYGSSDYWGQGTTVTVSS VL: EIVLTQSPATLSLSPGERATLSCSASSSVSYMNWYQQKPGQAPRIWIYGISNLASGIPARFSGSGSGTDFTLTISSLEPEDFAVYYCQQKSSFPWTFGGGTKVEIK", "endpoint_label": "MFI", "numeric_result": 2840}
{"binder": "TF-mAb-H45 (antibody, V domains shown, Humanized) VH: EVQLVQSGAEVKKPGESLKISCKGSGYSFTSYWMNWVRQMPGKGLEWMGMIYPADSETRLNQKFKDKATLSVDKSISTAYLQWSSLKASDTAMYYCAREDYGSSDYWGQGTTVTVSS VL: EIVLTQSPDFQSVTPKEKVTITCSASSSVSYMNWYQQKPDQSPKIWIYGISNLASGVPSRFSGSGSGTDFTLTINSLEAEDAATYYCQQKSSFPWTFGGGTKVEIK", "endpoint_label": "MFI", "numeric_result": 3480}
{"binder": "TF-mAb-H41 (antibody, V domains shown, Humanized) VH: EVQLVQSGAEVKKPGESLKISCKGSGYSFTSYWMNWVKQMPGKGLEWMGMIYPADSETRLNQKFKDKATLSVDKSISTAYLQWSSLKASDTAMYYCAREDYGSSDYWGQGTTVTVSS VL: DIQLTQSPSSLSASVGDRVTITCSASSSVSYMNWYQQKPGKSPKIWIYGISNLASGVPSRFSGSGSGTDFTLTISSLQPEDFATYYCQQKSSFPWTFGGGTKVEIK", "endpoint_label": "MFI", "numeric_result": 3610}

API: the following record is the query input.
### Prompt // MFI lookup, key: TF-mAb-H29 (antibody, V domains shown, Humanized) VH: EVQLVQSGAEVKKPGESLKISCKGSGYSFTSYWMNWVRQMPGKGLEWMGMIYPADSETRLNQKFKDQATLSVDKSISTAYLQWSSLKASDTAMYYCAREDYGSSDYWGQGTTVTVSS VL: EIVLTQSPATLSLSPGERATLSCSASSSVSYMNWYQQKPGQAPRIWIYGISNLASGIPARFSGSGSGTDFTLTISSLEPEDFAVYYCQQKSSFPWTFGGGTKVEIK
### Response 3580
